test: time-dependent metabolization (stability) in MLM and IVIVE of hepatic clearance; assay type: in vitro ADME, mouse; conditions: CD-1, mouse, liver microsomes, mouse, scaled from CLint,micr

{"columns": ["MOL", "CLint scaled at 2 µM (L/h/kg)"],
 "data": [
  ["C=C[C@@](C)(O)CC[C@H]1C(=C)C[C@H](OC(=O)NC)[C@H]2C(C)(C)CCC[C@]12C", 276]
]}

----------
assay: tissue distribution after single and repeated administration; format: in vivo, mice; details: male, C57BL/6, mouse, fat, iv, 20 mg/kg, 24 h after repeated (5 days, once a day) 20 mg/kg BW i.v.; mean ± SEM; read-out: Concentration, Fat

{"columns": ["MOL", "concentration at 24 h (ng/g)"],
 "data": [
  ["C=C[C@@](C)(O)CC[C@H]1C(=C)C[C@H](OC(=O)NC)[C@H]2C(C)(C)CCC[C@]12C", 369]
]}
